- system: Glucocorticoid receptor (Rattus norvegicus)
- Sequence (P06536 whole entry): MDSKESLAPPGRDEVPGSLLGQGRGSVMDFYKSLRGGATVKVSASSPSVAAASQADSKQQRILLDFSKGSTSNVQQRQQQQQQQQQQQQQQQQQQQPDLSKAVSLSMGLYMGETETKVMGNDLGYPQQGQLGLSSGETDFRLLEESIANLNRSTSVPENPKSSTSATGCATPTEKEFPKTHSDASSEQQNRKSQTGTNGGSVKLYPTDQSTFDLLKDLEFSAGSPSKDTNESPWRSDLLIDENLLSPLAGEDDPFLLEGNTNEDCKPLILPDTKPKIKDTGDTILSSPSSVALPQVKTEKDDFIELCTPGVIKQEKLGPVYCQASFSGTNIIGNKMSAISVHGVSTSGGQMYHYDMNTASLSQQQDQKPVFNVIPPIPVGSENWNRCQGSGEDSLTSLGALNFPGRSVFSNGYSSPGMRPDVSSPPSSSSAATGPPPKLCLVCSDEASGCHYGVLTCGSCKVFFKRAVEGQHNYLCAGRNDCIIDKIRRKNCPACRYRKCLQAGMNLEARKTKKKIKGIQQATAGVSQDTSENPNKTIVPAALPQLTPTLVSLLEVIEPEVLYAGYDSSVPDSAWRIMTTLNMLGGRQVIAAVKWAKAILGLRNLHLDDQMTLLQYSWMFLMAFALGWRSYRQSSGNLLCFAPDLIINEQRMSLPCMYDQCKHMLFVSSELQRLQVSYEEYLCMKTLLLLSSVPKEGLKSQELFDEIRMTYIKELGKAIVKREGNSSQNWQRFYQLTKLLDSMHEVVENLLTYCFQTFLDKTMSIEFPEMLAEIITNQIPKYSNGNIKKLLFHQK
property.name: pIC50
# pIC50 = -log10(concentration in molar units)

(Q) Query (compound): CS[C@@]12OC(C)(C)O[C@@H]1CC1C3C[C@H](F)C4=CC(=O)C=C[C@]4(C)[C@@]3(F)[C@@H](O)C[C@@]12C (some centres undefined) ; field requested: pIC50
(A) 8.66

(Q) Query (compound): CCC[C@@H]1O[C@@H]2CC3C4C[C@H](F)C5=CC(=O)C=C[C@]5(C)[C@@]4(F)[C@@H](O)C[C@]3(C)[C@]2(SCF)O1 (some centres undefined) ; field requested: pIC50
(A) 8.66

(Q) Query (compound): CCC[C@@H]1O[C@@H]2CC3C4CCC5=CC(=O)C=C[C@]5(C)[C@@]4(F)[C@@H](O)C[C@]3(C)[C@]2(SC)O1 (some centres undefined) ; field requested: pIC50
(A) 8.77

(Q) Query (compound): `CC1(C)O[C@@H]2C[C@H]3[C@@H]4C[C@H](F)C5=CC(=O)C=C[C@]5(C)[C@@]4(F)[C@@H](O)C[C@]3(C)[C@]2(SCF)O1` ; field requested: pIC50
(A) 8.37

----------
- system: Glucocorticoid receptor (Rattus norvegicus)
- Sequence (P06536 whole entry): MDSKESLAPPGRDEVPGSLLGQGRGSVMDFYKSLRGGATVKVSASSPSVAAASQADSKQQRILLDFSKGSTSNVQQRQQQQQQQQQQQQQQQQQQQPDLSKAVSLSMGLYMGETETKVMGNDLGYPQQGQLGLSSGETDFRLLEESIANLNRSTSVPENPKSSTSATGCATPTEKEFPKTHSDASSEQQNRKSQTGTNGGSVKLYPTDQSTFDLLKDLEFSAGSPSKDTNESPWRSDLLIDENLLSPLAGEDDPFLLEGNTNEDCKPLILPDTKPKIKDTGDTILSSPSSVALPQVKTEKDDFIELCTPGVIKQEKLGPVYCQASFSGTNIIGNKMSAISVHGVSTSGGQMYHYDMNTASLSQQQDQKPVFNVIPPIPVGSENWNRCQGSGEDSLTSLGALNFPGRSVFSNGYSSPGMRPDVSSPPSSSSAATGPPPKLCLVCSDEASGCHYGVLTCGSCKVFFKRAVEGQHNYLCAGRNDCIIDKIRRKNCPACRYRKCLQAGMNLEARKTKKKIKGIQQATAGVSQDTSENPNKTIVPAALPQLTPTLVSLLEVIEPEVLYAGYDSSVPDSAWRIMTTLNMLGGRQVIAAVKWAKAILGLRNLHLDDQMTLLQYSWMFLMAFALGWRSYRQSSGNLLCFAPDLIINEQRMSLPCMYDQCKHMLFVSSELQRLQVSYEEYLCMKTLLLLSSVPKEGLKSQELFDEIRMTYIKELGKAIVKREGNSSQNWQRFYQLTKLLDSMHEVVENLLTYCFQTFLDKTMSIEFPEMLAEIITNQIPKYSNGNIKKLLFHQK
property.name: log10 of IC50 (log10 of the value in nM)
Recorded IC50 (log10, nM)

molecule | system | log10 of IC50
CCC[C@@H]1O[C@@H]2CC3C4CCC5=CC(=O)C=C[C@]5(C)[C@@]4(F)[C@@H](O)C[C@]3(C)[C@]2(Sc2ccccn2)O1 (stereo partly drawn) | Glucocorticoid receptor (Rattus norvegicus) | 1.08
CCC[C@@H]1O[C@@H]2CC3C4C[C@H](F)C5=CC(=O)C=C[C@]5(C)[C@@]4(F)[C@@H](O)C[C@]3(C)[C@]2(SC)O1 (stereo partly drawn) | Glucocorticoid receptor (Rattus norvegicus) | 0.38
CC1(C)O[C@@H]2CC3C4CCC5=CC(=O)C=C[C@]5(C)[C@@]4(F)[C@@H](O)C[C@]3(C)[C@]2(Sc2ccccn2)O1 (stereo partly drawn) | Glucocorticoid receptor (Rattus norvegicus) | 1.34
CCC[C@@H]1O[C@@H]2CC3C4CCC5=CC(=O)C=C[C@]5(C)[C@@]4(F)[C@@H](O)C[C@]3(C)[C@]2([S+](C)[O-])O1 (stereo partly drawn) | Glucocorticoid receptor (Rattus norvegicus) | 0.51
CCC[C@@H]1O[C@@H]2CC3C4CCC5=CC(=O)C=C[C@]5(C)[C@@]4(F)[C@@H](O)C[C@]3(C)[C@]2(SC(C)C)O1 (stereo partly drawn) | Glucocorticoid receptor (Rattus norvegicus) | 0.74
CC1(C)O[C@@H]2C[C@H]3[C@@H]4CCC5=CC(=O)C=C[C@]5(C)[C@@]4(F)[C@@H](O)C[C@]3(C)[C@]2(S(C)(=O)=O)O1 | Glucocorticoid receptor (Rattus norvegicus) | 0.72

For the next question, use this molecule.
(Q) Query (molecule): CCC[C@@H]1O[C@@H]2CC3C4CCC5=CC(=O)C=C[C@]5(C)[C@@]4(F)[C@@H](O)C[C@]3(C)[C@]2(SCC)O1 (stereo partly drawn) ; field requested: log10 of IC50
(A) 0.52
